- Test system: Nephotettix cincticeps
- measurement.protocol: Insecticidal activity against Nephotettix cincticeps (green rice leafhopper) infested in compound-pretreated rice seedling measured 6 days post-infestation
- Assay type: functional
LC80 values for the compounds below.

Before answering, review these 5 worked examples.
{"compound": "CC1C2N/C(=N\\C#N)NC1c1ccccc1O2 (mixture of isomers)", "LC80": ">100 ppm"}
{"compound": "CC12CC(c3ccccc3O1)N(Cc1ccccc1)/C(=N/C#N)N2 (configuration not stated)", "LC80": "<100 ppm"}
{"compound": "CC12CC(N/C(=N/C#N)N1)c1cccc(F)c1O2 (configuration not stated)", "LC80": ">100 ppm"}
{"compound": "CC12CC(N/C(=N/C#N)N1)c1c(Cl)cc(Cl)cc1O2 (configuration not stated)", "LC80": "<10 ppm"}
{"compound": "CC1c2ccccc2C2CC1N/C(=N\\C#N)N2 (configuration not stated)", "LC80": "<10 ppm"}

Recorded LC80 for C[C@@H]1[C@H]2Cc3ccccc3[C@@H]1N/C(=N/C#N)N2 (relative stereo) with Nephotettix cincticeps, please?
<0.1 ppm

Recorded LC80 for CC12CC(N/C(=N/C#N)N1)c1cc(Cl)ccc1O2 (configuration not stated) with Nephotettix cincticeps, please?
>100 ppm

====

- Tested on: Nephotettix cincticeps
- measurement.protocol: Insecticidal activity against Nephotettix cincticeps (green rice leafhopper) infested in compound-pretreated rice seedling measured 6 days post-infestation
- Format: functional
readout.type: LC80

{"compound": "CC(C)C(=O)N1/C(=N/C#N)NC2(C)CC1c1ccccc1O2 (stereo unspecified)", "LC80": ">100 ppm"}
{"compound": "CCC12CC(N/C(=N/C#N)N1)c1ccccc1O2 (stereo unspecified)", "LC80": ">100 ppm"}
{"compound": "CC(=O)N1/C(=N/C#N)NC2(C)CC1c1ccccc1O2 (stereo unspecified)", "LC80": "<10 ppm"}

Could you share which LC80 value was measured for COC(=O)CN1/C(=N/C#N)NC2(C)CC1c1ccccc1O2 (stereo unspecified) ?
<100 ppm

Could you share which LC80 value was measured for CC12CC(N/C(=N/C#N)N1)c1cc(C(C)(C)C)cc(C(C)(C)C)c1O2 (stereo unspecified) ?
>100 ppm

Could you share which LC80 value was measured for C[C@@H]1[C@H]2N/C(=N/C#N)N[C@]1(C)Oc1ccccc12 (relative stereo) ?
>100 ppm

====

- Test system: Nephotettix cincticeps
- measurement.protocol: Insecticidal activity against Nephotettix cincticeps (green rice leafhopper) infested in compound-pretreated rice seedling measured 6 days post-infestation
- Assay type: functional
LC80 values for the compounds below.

{"compound": "C[C@H]1[C@H]2N/C(=N/C#N)N[C@]1(C)Cc1ccccc12 (relative stereo)", "LC80": "<1 ppm"}
{"compound": "CC12CC(c3ccccc3O1)N(C[Si](C)(C)C)/C(=N/C#N)N2 (stereo unspecified)", "LC80": ">100 ppm"}
{"compound": "COC(=O)N1/C(=N/C#N)NC2(C)CC1c1ccccc1O2 (stereo unspecified)", "LC80": "<10 ppm"}
{"compound": "CCC(=O)N1/C(=N/C#N)NC2(C)CC1c1ccccc1O2 (stereo unspecified)", "LC80": "<100 ppm"}
{"compound": "N#C/N=C1/NC2CC(c3ccccc3)(N1)Oc1ccccc12 (stereo unspecified)", "LC80": "<10 ppm"}

Could you share which LC80 value was measured for N#C/N=C1\NC2CC(N1)c1ccccc1O2 (stereo unspecified) ?
>100 ppm

Could you share which LC80 value was measured for Cc1cccc2c1OC1(C)CC2N/C(=N/C#N)N1 (stereo unspecified) ?
>100 ppm

Could you share which LC80 value was measured for CCC1C2N/C(=N/C#N)NC1(C)Oc1ccccc12 (stereo unspecified) ?
<10 ppm

Could you share which LC80 value was measured for C=CCN1/C(=N/C#N)NC2(C)CC1c1ccccc1O2 (stereo unspecified) ?
>100 ppm

Could you share which LC80 value was measured for CC12CC(c3ccccc3O1)N(S(C)(=O)=O)/C(=N/C#N)N2 (stereo unspecified) ?
>100 ppm

Could you share which LC80 value was measured for CC12CC(c3ccccc3O1)N(Cc1ccccn1)/C(=N/C#N)N2 (stereo unspecified) ?
>100 ppm
